- TARGET_ENTITY: human HSV DNA polymerase UL30 (Human herpesvirus 1 (strain 17) (HHV-1) (Human herpes simplex virus 1))
- PROTOCOL_DESCRIPTION: HSV polymerase biochemical assay (molecular beacon-based)
pIC50: −log10 of the molar value.
So basically every entry gets a class from its pIC50, ranges being lower range (below 5), middle range (5 to below 7), upper range (7 or more)

{"COMPOUND": "C[S+]([O-])C1(CN2CCn3c(ccc(C(=O)NCc4ccc(C#N)cc4)c3=O)C2=O)CC1 (stereo not drawn)", "QUALITATIVE_LABEL": "middle range"}
{"COMPOUND": "COCC(C)(C)S(=O)(=O)C1(CN2CCn3c(ccc(C(=O)NCc4ccc(C#N)cc4)c3=O)C2=O)CC1", "QUALITATIVE_LABEL": "upper range"}
{"COMPOUND": "O=C(NCc1ccc(Cl)cc1)c1ccc2n(c1=O)CCN(C1CCS(=O)(=O)C1)C2=O (stereo not drawn)", "QUALITATIVE_LABEL": "middle range"}
{"COMPOUND": "C[C@@H](NC(=O)c1ccc2n(c1=O)CCN(CC1(S(C)(=O)=O)CC1)C2=O)c1ccc(Cl)cc1", "QUALITATIVE_LABEL": "lower range"}

Exercise: read the entry CS(=O)(=O)N1CCC[C@H]1CN1CCn2c(ccc(C(=O)NCc3ccc(Cl)cc3)c2=O)C1=O and state which class it falls under.
lower range

Sort CC(C)(C(=O)O)S(=O)(=O)C1(CN2CCn3c(ccc(C(=O)NCc4ccc(Cl)cc4)c3=O)C2=O)CC1 into one of the categories.
upper range

Which category does the recorded pIC50 put C[S@@+]([O-])C1(CN2CCn3c(ccc(C(=O)NCc4ccc(Cl)cc4)c3=O)C2=O)CC1 (single isomer, unassigned) in?
middle range

Pick a category. Item: O=C(NCc1ccc(Cl)cc1)c1ccc2n(c1=O)CCN(CCN1CCCC1=O)C2=O
middle range

Would you mind sorting CC(C)(CO)S(=O)(=O)C1(CN2CCn3c(ccc(C(=O)NCc4ccc(Cl)nc4)c3=O)C2=O)CC1 into the appropriate category?
upper range

# classify by pIC50 band: CN(C(=O)OC(C)(C)C)C1(CN2CCn3c(ccc(C(=O)NCc4ccc(Cl)cc4)c3=O)C2=O)CC1
lower range

Which of the defined bands does the recorded pIC50 of CNC1(CN2CCn3c(ccc(C(=O)NCc4ccc(Cl)cc4)c3=O)C2=O)CC1 sit within?
middle range

GET /class?item= N#Cc1ccc(CNC(=O)c2ccc3n(c2=O)CCN(CC2(S(=O)(=O)CC4(C#N)CC4)CC2)C3=O)cc1F
upper range

###

- TARGET_ENTITY: human CMV DNA polymerase UL54 (Human cytomegalovirus (strain AD169) (HHV-5) (Human herpesvirus 5), UniProt P08546)
- PROTOCOL_DESCRIPTION: CMV polymerase biochemical assay (molecular beacon-based)
Lab note - cut at 3 nM for IC50: criterion met if strictly below, criterion not met if not.

Study these solved cases before continuing.
{"COMPOUND": "O=C(NCc1ccc(Cl)cc1)c1ccc2n(c1=O)CCN(CC1(S(=O)(=O)C3CCOCC3)CC1)C2=O [Example 105-1]", "QUALITATIVE_LABEL": "criterion met"}
{"COMPOUND": "N#Cc1ccc(CNC(=O)c2ccc3n(c2=O)CCN(CC2(S(=O)(=O)C4CCCC4)CC2)C3=O)cc1 [Example 22]", "QUALITATIVE_LABEL": "criterion met"}
{"COMPOUND": "CS(=O)(=O)C1(CN2CCn3c(c(F)cc(C(=O)NCc4ccc(C#N)cc4)c3=O)C2=O)CC1 [Example 164]", "QUALITATIVE_LABEL": "criterion not met"}
{"COMPOUND": "CS(=O)(=O)NCCN1CCn2c(ccc(C(=O)NCc3ccc(Cl)cc3)c2=O)C1=O [Example 62]", "QUALITATIVE_LABEL": "criterion not met"}
{"COMPOUND": "COC1(S(=O)(=O)C2(CN3CCn4c(ccc(C(=O)NCc5ccc(Cl)cc5)c4=O)C3=O)CC2)CC1 [Example 188]", "QUALITATIVE_LABEL": "criterion met"}

Kindly review the next compound as well.
Determine whether this compound shows IC50 lower than 3 nM (ties excluded): CN(C(=O)OC(C)(C)C)C1(CN2CCn3c(ccc(C(=O)NCc4ccc(Cl)cc4)c3=O)C2=O)CC1 [Example 206]
criterion not met
